targetOfAssay: human CD73 (Homo sapiens, UniProt P21589)
experimentDescription: Inhibition of Ecto-5′-nucleotidase (CD73) activity in CHO-CD73 cells, phosphate release from AMP
experimentalSetup: CHO-K1 cells stably transfected with human CD73; 25 μM AMP; 50 minutes, 37° C.; read-out: Potency: CD73 IC50
pIC50: −log10 of the molar value.
metric: pIC50

>  <compound>
N#Cc1ccc(Cn2nccc2-c2cc(F)c3nnn(-c4ccc5[nH]c(=O)[nH]c5c4)c3c2)c(Br)c1 [Example 267]

>  <targetOfAssay>
human CD73 (Homo sapiens, UniProt P21589)

>  <metric>
pIC50

>  <result>
6.00 to 7.00

$$$$
>  <compound>
O=c1[nH]c2ccc(-n3nnc4c(F)cc(-c5ccnn5CCc5ccc(Cl)cc5)cc43)cc2[nH]1 [Example 205]

>  <targetOfAssay>
human CD73 (Homo sapiens, UniProt P21589)

>  <metric>
pIC50

>  <result>
< 6.00

$$$$
>  <compound>
N#Cc1ccc(Cn2nccc2-c2cc(C#N)c3nnn(-c4ccc5cn[nH]c5c4)c3c2)cc1 [Example 114]

>  <targetOfAssay>
human CD73 (Homo sapiens, UniProt P21589)

>  <metric>
pIC50

>  <result>
6.00 to 7.00

$$$$
>  <compound>
N#Cc1ccc(Cn2nccc2-c2cnc3cnn(-c4ccc5cn[nH]c5c4)c3c2)nc1 [Example 179]

>  <targetOfAssay>
human CD73 (Homo sapiens, UniProt P21589)

>  <metric>
pIC50

>  <result>
< 6.00

$$$$

---

targetOfAssay: human CD73 (Homo sapiens)
experimentDescription: Inhibition of Ecto-5′-nucleotidase (CD73) activity in CHO-CD73 cells, phosphate release from AMP
experimentalSetup: CHO-K1 cells stably transfected with human CD73; 25 μM AMP; 50 minutes, 37° C.; read-out: Potency: CD73 IC50
pIC50: −log10 of the molar value.

>  <compound>
N#Cc1ccc(Cn2nccc2-c2cc3c(cc2Cl)nnn3-c2ccc3cn[nH]c3c2)cc1 [Example 151]

>  <pIC50>
6.00 to 7.00

$$$$
>  <compound>
O=c1[nH]c2ccc(-n3nnc4c(F)cc(-c5ccnn5Cc5ccc(F)cn5)cc43)cc2[nH]1 [Example 174]

>  <pIC50>
< 6.00

$$$$
>  <compound>
Cc1nn(-c2ccc3cn[nH]c3c2)c2cc(-c3ccnn3Cc3ccc(C#N)cc3)cnc12

>  <pIC50>
6.00 to 7.00

$$$$
>  <compound>
Cc1cc(C)cc(-n2nccc2-c2cc(Cl)c3nnn(-c4ccc5[nH]c(=O)[nH]c5c4)c3c2)c1

>  <pIC50>
6.00 to 7.00

$$$$
>  <compound>
CC(O)c1cc(C#N)ccc1Cn1nccc1-c1cc(F)c2nnn(-c3ccc4[nH]c(=O)[nH]c4c3)c2c1 (stereo not drawn)

>  <pIC50>
6.00 to 7.00

$$$$
>  <compound>
N#Cc1ccc(Cn2nccc2-c2cc(Cl)c3nnn(-c4ccnc(N)c4)c3c2)nc1

>  <pIC50>
< 6.00

$$$$
>  <compound>
Cc1cc(-n2nccc2-c2cc(Cl)c3nnn(-c4ccc5[nH]c(=O)[nH]c5c4)c3c2)ccc1Cl

>  <pIC50>
< 6.00

$$$$
>  <compound>
CS(=O)(=O)c1cc(Cl)ccc1Cn1nccc1-c1cc(F)c2nnn(-c3ccc4[nH]c(=O)[nH]c4c3)c2c1

>  <pIC50>
6.00 to 7.00

$$$$
>  <compound>
O=c1[nH]c2ccc(-n3nnc4c(F)cc(-c5ccnn5Cc5ncccn5)cc43)cc2[nH]1

>  <pIC50>
< 6.00

$$$$
>  <compound>
N#Cc1ccc(Cn2nccc2-c2cnc3c(C(F)(F)F)nn(-c4ccc5cn[nH]c5c4)c3c2)cc1

>  <pIC50>
< 6.00

$$$$
>  <compound>
O=c1[nH]c2ccc(-n3nnc4c(F)cc(-c5ccnn5CCOc5ccccc5)cc43)cc2[nH]1

>  <pIC50>
< 6.00

$$$$
>  <compound>
N#Cc1ccc(Cn2ncc(Cl)c2-c2cc(F)c3nnn(-c4ccc5[nH]c(=O)[nH]c5c4)c3c2)cc1

>  <pIC50>
6.00 to 7.00

$$$$
>  <compound>
N#Cc1ccc(Cn2nccc2-c2cc(F)c3nnn(-c4ccc5[nH]c(=O)[nH]c5c4)c3c2)c(C(=O)N2CC(O)C2)c1

>  <pIC50>
< 6.00

$$$$
>  <compound>
N#Cc1ccc(Cn2nccc2-c2cc(F)c3nnn(-c4ccc5c(COCCO)n[nH]c5c4)c3c2)cc1

>  <pIC50>
< 6.00

$$$$
>  <compound>
N#Cc1ccc(Cn2nccc2-c2cnc3c(c2)c(-c2ccc4cn[nH]c4c2)nn3CCc2ccccc2)cc1

>  <pIC50>
< 6.00

$$$$

---

targetOfAssay: human CD73 (Homo sapiens, UniProt P21589)
Sequence (P21589 27-549): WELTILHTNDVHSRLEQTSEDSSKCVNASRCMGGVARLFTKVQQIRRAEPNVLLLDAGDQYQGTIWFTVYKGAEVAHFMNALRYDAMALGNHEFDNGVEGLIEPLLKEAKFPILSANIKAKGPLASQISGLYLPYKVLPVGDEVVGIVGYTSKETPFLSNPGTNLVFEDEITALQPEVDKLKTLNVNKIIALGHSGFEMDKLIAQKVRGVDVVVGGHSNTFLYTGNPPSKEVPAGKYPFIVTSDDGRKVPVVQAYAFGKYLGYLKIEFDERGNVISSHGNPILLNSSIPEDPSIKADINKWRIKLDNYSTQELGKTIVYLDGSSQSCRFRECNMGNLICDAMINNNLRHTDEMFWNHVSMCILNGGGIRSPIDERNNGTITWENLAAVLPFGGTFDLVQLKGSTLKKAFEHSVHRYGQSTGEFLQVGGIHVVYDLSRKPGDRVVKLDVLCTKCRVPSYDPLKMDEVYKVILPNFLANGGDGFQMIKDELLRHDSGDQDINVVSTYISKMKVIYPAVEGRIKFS
experimentDescription: Inhibition of Ecto-5′-nucleotidase (CD73) activity in CHO-CD73 cells, phosphate release from AMP
experimentalSetup: CHO-K1 cells stably transfected with human CD73; 25 μM AMP; 50 minutes, 37° C.; read-out: Potency: CD73 IC50
pIC50: −log10 of the molar value.

>  <molecule>
Cc1cc(-n2nccc2-c2cc(Cl)c3nnn(-c4ccc5[nH]c(=O)[nH]c5c4)c3c2)ccn1 [Example 293]

>  <targetOfAssay>
human CD73 (Homo sapiens, UniProt P21589)

>  <pIC50>
6.00 to 7.00

$$$$
>  <molecule>
[O-][n+]1cc(Cl)ccc1Cn1nccc1-c1cc(Cl)c2nnn(-c3ccc4cn[nH]c4c3)c2c1 [Example 366]

>  <targetOfAssay>
human CD73 (Homo sapiens, UniProt P21589)

>  <pIC50>
> 7.00

$$$$
>  <molecule>
N#Cc1ccc(Cn2nccc2-c2ccc3nnn(-c4ccc5[nH]c(=O)[nH]c5c4)c3c2)cc1 [Example 157]

>  <targetOfAssay>
human CD73 (Homo sapiens, UniProt P21589)

>  <pIC50>
6.00 to 7.00

$$$$
>  <molecule>
FC1(F)CN(CCn2nccc2-c2ccc3nnn(-c4ccc5cn[nH]c5c4)c3c2)C1 [Example 121]

>  <targetOfAssay>
human CD73 (Homo sapiens, UniProt P21589)

>  <pIC50>
< 6.00

$$$$
>  <molecule>
N#Cc1ccc(Cn2nccc2-c2cc(F)c3nnn(-c4ccc5[nH]c(=O)[nH]c5c4)c3c2)c(CNCC2CCCC2)c1 [Example 296]

>  <targetOfAssay>
human CD73 (Homo sapiens, UniProt P21589)

>  <pIC50>
6.00 to 7.00

$$$$
>  <molecule>
CC(C)c1cccc(-n2nccc2-c2cc(Cl)c3nnn(-c4ccc5[nH]c(=O)[nH]c5c4)c3c2)c1 [Example 258]

>  <targetOfAssay>
human CD73 (Homo sapiens, UniProt P21589)

>  <pIC50>
6.00 to 7.00

$$$$
>  <molecule>
O=c1[nH]c2ccc(-n3nnc4c(Cl)cc(-c5ccnn5C5CCc6cc(Cl)ccc65)cc43)cc2[nH]1 (stereo not shown) [Example 262]

>  <targetOfAssay>
human CD73 (Homo sapiens, UniProt P21589)

>  <pIC50>
6.00 to 7.00

$$$$

---

targetOfAssay: human CD73 (Homo sapiens)
experimentDescription: Inhibition of Ecto-5′-nucleotidase (CD73) activity in CHO-CD73 cells, phosphate release from AMP
experimentalSetup: CHO-K1 cells stably transfected with human CD73; 25 μM AMP; 50 minutes, 37° C.; read-out: Potency: CD73 IC50
pIC50: −log10 of the molar value.
metric: pIC50

>  <compound>
Cc1cc(Cl)ccc1Cn1nccc1-c1cc(Cl)c2nnn(-c3ccc4cn[nH]c4c3)c2c1

>  <result>
> 7.00

$$$$
>  <compound>
Clc1ccc(Cn2nccc2-c2cc3c(cn2)nnn3-c2ccc3cn[nH]c3c2)c(Cl)c1

>  <result>
> 7.00

$$$$
>  <compound>
Cc1ccc(Cn2nccc2-c2cc3c(cc2F)nnn3-c2ccc3cn[nH]c3c2)[n+]([O-])c1

>  <result>
6.00 to 7.00

$$$$
>  <compound>
O=c1[nH]c2ccc(-n3nnc4c(F)cc(-c5ccnn5Cc5ccc(Cl)cn5)cc43)cc2[nH]1

>  <result>
6.00 to 7.00

$$$$
>  <compound>
O=c1[nH]c2ccc(-n3nnc4c(F)cc(-c5ccnn5Cc5ccncn5)cc43)cc2[nH]1

>  <result>
< 6.00

$$$$
>  <compound>
N#Cc1ccc(Cn2nccc2-c2cc(F)c3nnn(-c4ccc5[nH]c(=O)[nH]c5c4)c3c2)c(CN2CCOCC2)c1

>  <result>
< 6.00

$$$$
>  <compound>
N#Cc1ccc(Cn2nccc2-c2cc(F)c3nnn(-c4ccc5c(CO)n[nH]c5c4)c3c2)cc1

>  <result>
6.00 to 7.00

$$$$
>  <compound>
N#Cc1ccc(Cn2nccc2-c2cc3c(nnn3-c3ccc4[nH]c(=O)[nH]c4c3)c(=O)[nH]2)cc1

>  <result>
6.00 to 7.00

$$$$
>  <compound>
FC(F)(F)c1ccc(Cn2nccc2-c2cc(Cl)c3nnn(-c4ccc5cn[nH]c5c4)c3c2)c(Cl)c1

>  <result>
6.00 to 7.00

$$$$
>  <compound>
N#Cc1ccc(Cn2nccc2-c2cnc3cnn(-c4ccc5cn[nH]c5c4)c3c2)cc1

>  <result>
< 6.00

$$$$
>  <compound>
Clc1ccc(Cn2nccc2-c2cnc3cnn(-c4ccc5cn[nH]c5c4)c3c2)c(Cl)c1

>  <result>
6.00 to 7.00

$$$$
>  <compound>
O=c1[nH]c2ccc(-n3nnc4c(F)cc(-c5ccnn5Cc5ccc6cn[nH]c6c5)cc43)cc2[nH]1

>  <result>
6.00 to 7.00

$$$$
>  <compound>
Clc1cc(-c2ccnn2CCc2ccccc2)cc2c1nnn2-c1ccc2cn[nH]c2c1

>  <result>
6.00 to 7.00

$$$$
>  <compound>
O=c1[nH]c2ccc(-n3nnc4c(Cl)cc(-c5ccnn5-c5cccc(C(F)(F)F)c5)cc43)cc2[nH]1

>  <result>
6.00 to 7.00

$$$$
>  <compound>
Clc1ccc(Cn2nccc2-c2cc3c(cn2)cnn3-c2ccc3cn[nH]c3c2)nc1

>  <result>
< 6.00

$$$$
>  <compound>
c1cc(-c2ccc3nnn(-c4ccc5cn[nH]c5c4)c3c2)n(CC2CCCCO2)n1 (stereo not drawn)

>  <result>
< 6.00

$$$$
>  <compound>
N#Cc1ccc(Cn2nccc2-c2cc3c(c[n+]2[O-])nnn3-c2ccc3cn[nH]c3c2)cc1

>  <result>
6.00 to 7.00

$$$$
>  <compound>
N#Cc1ccc(Cn2nccc2-c2cnc3cnn(-c4ccc5[nH]c(=O)[nH]c5c4)c3c2)cc1

>  <result>
< 6.00

$$$$
>  <compound>
Cc1nn(-c2ccc3cn[nH]c3c2)c2cc(-c3ccnn3Cc3ccc(Cl)cc3)cnc12

>  <result>
6.00 to 7.00

$$$$
>  <compound>
O=c1[nH]c2ccc(-n3nnc4c(F)cc(-c5ccnn5Cc5cccnn5)cc43)cc2[nH]1

>  <result>
< 6.00

$$$$
>  <compound>
CC(=O)c1cc(C#N)ccc1Cn1nccc1-c1cc(F)c2nnn(-c3ccc4[nH]c(=O)[nH]c4c3)c2c1

>  <result>
6.00 to 7.00

$$$$
>  <compound>
O=c1[nH]c2ccc(-n3nnc4cnc(-c5ccnn5Cc5ccc(Cl)c(F)c5)cc43)cc2[nH]1

>  <result>
6.00 to 7.00

$$$$
>  <compound>
CC(c1ccc(C#N)cc1)n1nccc1-c1cc2c(cc1Cl)nnn2-c1ccc2cn[nH]c2c1 (stereo not drawn)

>  <result>
6.00 to 7.00

$$$$
>  <compound>
O=c1[nH]c2ccc(-n3nnc4c(Cl)cc(-c5ccnn5C5Cc6ccc(Cl)cc6C5)cc43)cc2[nH]1 (stereo not drawn)

>  <result>
6.00 to 7.00

$$$$
>  <compound>
Cc1cccc(-n2nccc2-c2cnc3c(C)nn(-c4ccc5cn[nH]c5c4)c3c2)c1

>  <result>
6.00 to 7.00

$$$$
>  <compound>
N#Cc1ccc(Cn2nccc2-c2cc(F)c3nnn(-c4ccc5[nH]c(=O)[nH]c5c4)c3c2)c(-c2ncco2)c1

>  <result>
6.00 to 7.00

$$$$
>  <compound>
Cc1cc2nnn(-c3ccc4cn[nH]c4c3)c2cc1-c1ccnn1C(C)c1ccc(C#N)cc1 (stereo not drawn)

>  <result>
< 6.00

$$$$
>  <compound>
O=c1[nH]c2ccc(-n3nnc4ccc(-c5ccnn5Cc5ccc(F)cn5)cc43)cc2[nH]1

>  <result>
6.00 to 7.00

$$$$
>  <compound>
c1cc(-c2ccc3nnn(-c4ccc5cn[nH]c5c4)c3c2)n(Cc2ccc(C3CC3)cc2)n1

>  <result>
6.00 to 7.00

$$$$
>  <compound>
Cc1cccc(-n2ncc(C)c2-c2cc(F)c3nnn(-c4ccc5cn[nH]c5c4)c3c2)c1

>  <result>
< 6.00

$$$$

These measurements were taken from patent US11931343B2.
